// IC50 lookup, one value per entry
- experimentalSystem: Tc-CYP51 (Trypanosoma cruzi, UniProt Q7Z1V1)
- Sequence (Q7Z1V1 whole entry): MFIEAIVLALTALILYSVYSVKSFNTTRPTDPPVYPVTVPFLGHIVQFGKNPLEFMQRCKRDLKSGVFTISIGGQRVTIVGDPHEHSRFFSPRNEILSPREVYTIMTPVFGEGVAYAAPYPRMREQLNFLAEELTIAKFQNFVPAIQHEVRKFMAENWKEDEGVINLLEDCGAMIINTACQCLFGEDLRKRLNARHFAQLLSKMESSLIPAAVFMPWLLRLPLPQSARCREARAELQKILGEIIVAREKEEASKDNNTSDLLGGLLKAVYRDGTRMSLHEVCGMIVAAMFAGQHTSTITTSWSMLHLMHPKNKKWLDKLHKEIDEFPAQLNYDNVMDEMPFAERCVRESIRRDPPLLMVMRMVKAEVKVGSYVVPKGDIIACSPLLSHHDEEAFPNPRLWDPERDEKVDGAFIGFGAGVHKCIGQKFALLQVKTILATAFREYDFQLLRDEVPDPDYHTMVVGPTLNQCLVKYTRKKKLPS
- measurementProtocol: T. cruzi sterol 14α-demethylase (CYP51) enzyme assay
- Format: biochemical
- runConditions: individual replicate; read-out: Tc CYP51 pIC50 (converted)
- Method: T. cruzi sterol 14α-demethylase (CYP51) enzyme assay Potency against T. cruzi CYP51 was determined using a previously described fluorescence assay. Average potency for compound 1 was determined with three experimental replicates. Potencies in Fig.3 are from single experimental replicates. ^5
resultType: IC50 (nM)

>  <molecule>
COc1ccc(NC(=O)NC2C(=O)Nc3cccc(F)c3N(c3ccccc3)C2=O)cc1 (stereo not drawn)

>  <val>
10000

$$$$
>  <molecule>
COc1ccc(CN2C(=O)C(N)C(=O)N(c3ccc(F)cc3)c3ccccc32)cc1 (stereo not drawn)

>  <val>
200

$$$$
>  <molecule>
COc1ccc(CN2C(=O)C(N)C(=O)N(CC3CC(F)(F)C3)c3ccccc32)cc1 (stereo not drawn)

>  <val>
100

$$$$
>  <molecule>
COc1ccc(CN2C(=O)C(N)C(=O)N(c3ccc(OC)nc3)c3ccccc32)cc1 (stereo not drawn)

>  <val>
200

$$$$
>  <molecule>
COc1ccc(CN2C(=O)C(N)C(=O)N(C3CC3)c3ccccc32)cc1 (stereo not drawn)

>  <val>
316

$$$$
>  <molecule>
COc1ccc(N2C(=O)C(NC(=O)Nc3ccc(C)cc3)C(=O)Nc3ccccc32)cc1 (stereo not drawn)

>  <val>
1580

$$$$
>  <molecule>
COc1ccc(NC(=O)NC2C(=O)Nc3ccccc3N(c3ccccc3)C2=O)cc1 (stereo not drawn)

>  <val>
7940

$$$$
>  <molecule>
COc1cccc(N2C(=O)C(NC(=O)Nc3ccc(C)cc3)C(=O)Nc3ccccc32)c1 (stereo not drawn)

>  <val>
3980

$$$$
>  <molecule>
COc1ccc(CN2C(=O)C(N)C(=O)N(c3ccccc3)c3ccccc32)cc1 (stereo not drawn)

>  <val>
200

$$$$

This collection of values is drawn from paper PMC12208134.
